# Tested target: T1, aggregated A-beta(1-40) peptide (BAA) (human)
# T1 construct: also called A-beta peptide aggregates
# Experiment: BAA ELISA
Measured property: binding result

reference VHH 31-1 (VHH, from WO2004/44204; also called V31-1) VHH: EVQLQASGGGSVQPGGSLRLSCAASGFIFGWSTMSWVRQAPGKGLEWVSTISGGGSATTYTDSVKGRFTISRDRAKNTLYLQMNSLKPEDTAIYYCNADVSTGFRYQRKDYWGRGTQVTVSS: no binding
reference VHH 3A (VHH, from WO2007/35092) VHH: AVQLVESGGGLVRDGDSLRLSCAASGRTFSSYVMGWFRQAPGKEREFVAAIGWSGGSTAYADSVKGRFTISRDNARNTVYLQMNSLKPEDTAVYYCASAPTRWVPRDSRFYDRWGQGTRVTVSS: no binding
reference VHH 1B (VHH, from WO2007/35092) VHH: QVQLQESGGGLVQPGGSLRLSCAASEFTLDYYSIAWFRQAPGKEREGVSCISSYDGSTSYADSVKGRFTISRDNAKNTVYLQMNSLKPEDTAIYYCAAGIRDWATLREYEYDDWGQGTQVTVSS: no binding
reference VHH 11G (VHH, from WO2007/35092) VHH: QVQLQESGGGLVQPGGSLRLSCAASGSIFSINTMAWYRQAPGKERDLVAAIISSGSTNYADSVKGRFTISRDNTKNTVYLQMNSLKLEDTAVYYCNAAIRRSVIDAWGAYWGQGTQVTVSS: no binding

Cited source for all entries: patent US20120058118A1
